Consider the following variants; for each one, report its self-cleavage.
B1: LINE1-mini (parent)
chain: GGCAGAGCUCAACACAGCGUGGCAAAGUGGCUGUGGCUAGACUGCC

Variants of: B1
Assay: self-cleavage, relative activity (ratio to wild type); higher = more cleavage; in vitro, sequencing; the parent is a self-cleaving ribozyme

Completed entries (count: 8):
INSERT INTO results (sequence_variant, measurement_type, data_value) VALUES
  ('G17C G35C', 'self-cleavage', 0.04),
  ('U38C C45A', 'self-cleavage', 0.35),
  ('G22C C42G', 'self-cleavage', 0.03),
  ('G17U G44A', 'self-cleavage', 0.07),
  ('A12C U34A', 'self-cleavage', 0.02),
  ('C23A C45G', 'self-cleavage', 0.42),
  ('C10G A12C', 'self-cleavage', 0.03),
  ('G35U G36C', 'self-cleavage', 0.11);

Give self-cleavage for each of the items listed below.
1. G22A C37U
2. C13U U20A
3. G2U A12U
4. A11G G44U
5. A16G C42U
6. G1C U43C
7. G21A A26U

0.05
0.17
0.04
0.01
0.09
0.03
1.89

For each of the variants below, note its self-cleavage.
1. G5A G44A
2. A6G C18A

1. 0.1
2. 0.11

Provide self-cleavage for all items below, preserving their order.
1. G1A U32C
2. G21A U28C
3. C3U U20G
4. G5U G30C

1. 0.11
2. 1.44
3. 0.28
4. 0.05

Take each entry in turn and give its self-cleavage.
1. C31A G44A
2. A24G U32A

0.06
0.14

Provide self-cleavage for all items below, preserving their order.
1. A4U A26G
2. G7A C37G
3. C3U A12G
4. C13U G17C
5. C10U A41G
6. C3A A41U
7. A6U U32C

0.14
0.05
0.06
0.11
0.07
0.32
0.1

Please supply self-cleavage for each of the following items, keeping them in order.
1. C23G C45U
2. U20G U34G
3. C8A A24G
4. G7C U38C
5. C13U G27C
6. U28A U34G

1. 0.97
2. 0.14
3. 0.38
4. 0.1
5. 0.06
6. 0.11

Hi team, please reply with self-cleavage for each item in this list.
1. U20G G36C
2. C8G C23A
3. C18A G21A
4. G1C C18G
5. C10A A14G
6. G30U G35U

1: 0.09; 2: 0.1; 3: 1.86; 4: 0.03; 5: 0.06; 6: 0.08

List reported self-cleavage for each of these variants:
1. U32G C46G
2. G5A G29U
3. G1A G22A
4. G5C U32G
5. G1U C31A
6. C13A U34A
7. A24U G36A
8. G5U A26G

1. 0.1
2. 0.13
3. 0.94
4. 0.07
5. 0.07
6. 0.07
7. 0.22
8. 0.12
